ASSAYED TARGET: Fyn (UniProt P06241)
Sequence (P06241 whole entry, looked up): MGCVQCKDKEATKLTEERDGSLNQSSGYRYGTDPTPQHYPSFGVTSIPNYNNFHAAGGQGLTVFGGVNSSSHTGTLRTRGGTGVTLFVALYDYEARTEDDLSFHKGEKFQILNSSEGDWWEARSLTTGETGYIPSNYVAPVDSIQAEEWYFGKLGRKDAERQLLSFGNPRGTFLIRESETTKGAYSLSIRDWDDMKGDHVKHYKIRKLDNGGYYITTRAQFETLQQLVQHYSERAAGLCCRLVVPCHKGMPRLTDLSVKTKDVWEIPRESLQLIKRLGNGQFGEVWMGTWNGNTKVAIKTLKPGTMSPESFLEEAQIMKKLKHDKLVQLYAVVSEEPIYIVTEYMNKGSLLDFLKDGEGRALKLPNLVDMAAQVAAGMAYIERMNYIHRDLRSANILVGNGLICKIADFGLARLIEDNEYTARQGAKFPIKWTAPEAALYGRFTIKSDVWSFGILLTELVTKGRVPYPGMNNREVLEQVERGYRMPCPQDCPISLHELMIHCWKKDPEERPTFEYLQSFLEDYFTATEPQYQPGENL
METHOD DESCRIPTION: phosphorylation enrichment, bacterial display (enrichment ratio); higher = better substrate or ligand; peptides without Tyr show the background;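 note: 11-residue human phosphosite peptides and single-mutation variants displayed on the E. coli surface, counted by deep sequencing, each peptide's frequency after selection divided by its frequency in the unselected input library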;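 note: frequency after pTyr selection over input frequency; kinase dosed for 20-30% of maximal phosphorylation in three min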
Note to self: values exactly at 0.5 are Condition met. So phosphorylation enrichment at or above 0.5 is Condition met, below is Condition not met.

LIQRNYKLTAQ [ALPK2_Y1975_A1978T]    Condition not met
IEDPYYGNDSD [ACP1_Y133]    Condition met
ERKQTYGSCRK [LACTB_Y473]    Condition not met

Consider the record given below.
Say whether AHAGEYGEEAL [HBA1_Y25_A27E] shows phosphorylation enrichment of 0.5 or more.
Condition met
